Hi there, I'd appreciate the recorded GI50 for every entry that follows.
test system: NCI-H23 lung; test: NCI tumour cell line growth inhibition, 48 h

Inquiry: # lookup: GI50 of CCOC(=O)/C(C=Nc1ccc(-c2nc3ccccc3[nH]2)cc1)=C(/C)O
Reply text: 15 µM

Inquiry: Same for C=C(CN1C(=O)CN(C)C1=O)c1ccc(C(=O)Nc2ccccc2N)cc1
Reply text: 26.8 µM

Inquiry: Can you handle O=c1[nH]nnc2c1ncn2C1OC(CO)C(O)C1O (stereo not drawn) next?
Reply text: 14.5 µM

Inquiry: Query CCN1C(=O)N(CC)C2C1NN=c1s/c(=C\c3cccc(F)c3)c(=O)n12 (stereo not drawn) next
Reply text: 0.522 µM

Inquiry: Fc1ccc(C2CC(c3cccc(Nc4ccncc4)c3)=NN2c2ccc(Cl)cc2)cc1 (stereo not drawn) ?
Reply text: 1.84 µM

Inquiry: Entry CCOC(=O)c1c(C)nc2c(c1N)CC(=O)N2Cc1ccc(OC)cc1 please
Reply text: 4.26 µM

Inquiry: Subsequent entry: COc1ccc(-c2nn(-c3cccc(Cl)c3)cc2-c2cc(-c3cccs3)[nH]c(=S)n2)cc1
Reply text: 3.43 µM

Inquiry: Ok, now COc1ccc(/C=C/C(=O)c2cc(OC)c(OC)c(OC)c2)cc1OCc1cn(Cc2ccc(F)cc2)nn1
Reply text: 18.9 µM
